Listed here: compounds with reported IC50 for Leukotriene A-4 hydrolase (Homo sapiens).
Give just the numeric value; nM need not be written.

Answered examples (5):
State the recorded IC50 for this entry: CN(CCCN(C)Cc1ccc(C(=O)O)cc1)CC(=O)Nc1ccc(Oc2ccccc2)cc1
6

Follow-up item: CN(Cc1ccc(C(=O)O)cc1)CC1CCCCN1CC(=O)Nc1ccc(Oc2ccccc2)cc1 (stereo in doubt; 4n)
17

Follow-up item: CN(CCCN(C)Cc1ccc(C(=O)O)cc1[N+](=O)[O-])CC(=O)Nc1ccc(Oc2ccccc2)cc1
15

Follow-up item: CN(CCCN(C)Cc1ccc(C(=O)O)c(F)c1)CC(=O)Nc1ccc(Oc2ccccc2)cc1
6

Follow-up item: CN(CCCN(C)Cc1ccc(C(=O)O)cc1)CC(=O)Nc1ccc(Oc2ccccc2F)cc1
16

Next:
State the recorded IC50 for this entry: CN(Cc1ccc(C(=O)O)cc1)CC1CCCCN1CC(=O)Nc1ccc(Oc2ccccc2)cc1 (stereo in doubt; 4o)
16
